subject.of.test: Voltage-gated inwardly rectifying potassium channel KCNH2 (Homo sapiens) (UniProt Q12809)
Sequence (Q12809 whole entry, looked up): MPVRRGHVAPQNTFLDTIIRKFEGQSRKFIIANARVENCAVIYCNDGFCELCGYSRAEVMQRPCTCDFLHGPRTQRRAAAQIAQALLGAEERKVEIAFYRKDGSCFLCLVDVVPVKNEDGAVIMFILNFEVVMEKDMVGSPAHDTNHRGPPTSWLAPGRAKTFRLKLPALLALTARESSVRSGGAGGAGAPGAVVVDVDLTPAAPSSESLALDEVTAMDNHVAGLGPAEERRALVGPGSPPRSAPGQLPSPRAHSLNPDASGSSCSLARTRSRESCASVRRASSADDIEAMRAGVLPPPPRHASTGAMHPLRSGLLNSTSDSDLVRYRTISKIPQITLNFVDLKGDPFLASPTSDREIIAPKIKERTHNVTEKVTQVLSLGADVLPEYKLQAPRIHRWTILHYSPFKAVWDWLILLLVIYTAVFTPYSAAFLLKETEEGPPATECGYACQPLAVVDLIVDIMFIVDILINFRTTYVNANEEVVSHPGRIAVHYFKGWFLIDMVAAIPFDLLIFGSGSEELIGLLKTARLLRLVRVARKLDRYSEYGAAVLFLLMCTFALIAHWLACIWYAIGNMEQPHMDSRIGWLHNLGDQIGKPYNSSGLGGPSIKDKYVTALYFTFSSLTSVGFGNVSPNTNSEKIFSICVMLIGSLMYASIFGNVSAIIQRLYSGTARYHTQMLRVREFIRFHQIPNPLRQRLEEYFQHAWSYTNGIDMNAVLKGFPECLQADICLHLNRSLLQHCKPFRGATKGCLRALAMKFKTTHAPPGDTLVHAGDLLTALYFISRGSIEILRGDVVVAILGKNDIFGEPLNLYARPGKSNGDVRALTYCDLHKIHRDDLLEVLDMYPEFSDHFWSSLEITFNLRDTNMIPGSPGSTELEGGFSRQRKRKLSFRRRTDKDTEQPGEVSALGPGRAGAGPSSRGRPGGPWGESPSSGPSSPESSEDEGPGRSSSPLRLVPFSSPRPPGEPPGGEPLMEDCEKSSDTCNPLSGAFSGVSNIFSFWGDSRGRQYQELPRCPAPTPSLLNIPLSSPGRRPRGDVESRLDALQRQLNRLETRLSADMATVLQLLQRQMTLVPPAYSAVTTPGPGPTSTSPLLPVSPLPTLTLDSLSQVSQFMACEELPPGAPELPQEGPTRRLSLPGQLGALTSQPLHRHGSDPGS
procedure.text: hERG block by Kir2.1 inhibitor candidates – cell-based, thallium flux, counter-screen for Kir2.1 inhibitor project (AID 2236);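 further: host cells are CHO cells stably expressing hERG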
condition.info: hERG-expressing cells, at 10 µM
The list shows a part of the results. The source made the active and inactive calls. How the calls were made is not given here.
Return exactly one item of active, inactive

Example entries begin here.
INSERT INTO results (molecule, group) VALUES
  ('CCCc1cc(=O)[nH]c(SCC(=O)c2cc(C)n(CCC)c2C)n1', 'inactive'),
  ('CC(NCc1ccccc1OC1CCCC1)c1ccccc1 (stereo not given)', 'inactive'),
  ('Cc1nnc(SCc2ccc(C(=O)c3ccc(Cl)cc3)o2)n1-c1ccccc1', 'inactive'),
  ('Cc1cc(C)nc(SCc2nnc(SCC(=O)OC3CCCCC3)o2)n1', 'inactive'),
  ('O=C(CCCN1CCc2[nH]c3ccc(F)cc3c2C1)c1ccc(F)cc1', 'active'),
  ('O=C(Nc1cccc(-c2cscn2)c1)C1CCN(Cc2ccsc2)CC1', 'active');

Q: Tell me the assay call for Clc1cccc(Cl)c1OCCOCCNCc1ccccc1 please.
Result: inactive

Q: So what was the verdict on C/C=C(/C)C(=O)OC1Cc2c(ccc3ccc(=O)oc23)OC1(C)C (stereo not given) in this test?
Result: inactive

Q: Could you please tell me the result logged for CC1(C)NC(=O)N(CCCCSc2ccc(Cl)cc2)C1=O in this assay?
Result: inactive

Q: // param item: Cc1ccc(Nc2c3c(nc4ccccc24)CCC3)cc1 ; yields the recorded call
Result: active

###

Test system: transient receptor potential cation channel C4 beta (TRPC4), mouse
procedure.text: TRPC4 cation channel opening, second retest – cell-based, second round, Fluo4, HEK293 TRPC4beta/mu-opioid, 1 µM, confirmation (AID 2461)
condition.info: Fluo4 calcium fluorescence, at 1 µM
The source made the active and inactive calls.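 The calls were made as follows: active = primary screen active and over 50% activation in each of two duplicate runs; inactive = the rest.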
Tick one outcome: active, inactive

Q: I'd appreciate the recorded outcome for C=CCOc1ccc(Br)cc1/C=N/O from this test.
Result: inactive

Q: Would you mind telling me which call this test gave CCOC(=O)c1c(NC(=O)C2CCCO2)sc2c1CCC2 (stereo unspecified) ?
Result: inactive

###

subject.of.test: Short transient receptor potential channel 6 (Mus musculus)
procedure.text: positive modulators of mouse TRPC6 channel – HEK293 cells, membrane potential dye, duplicate, selectivity assay for TRPC4 potentiator project, confirmation (AID 434952)
condition.info: HEK293 TRPC6, membrane potential dye fluorescence, at 10 µM, maximal acetylcholine added after compound; hits give high values
The source made the active and inactive calls.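 How the source made its calls: active means compound raising the membrane signal above positive-control mean plus 3 SD in both repeats, and a primary screen hit; inactive means the rest.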
measured.metric: potentiation, percent of control

INSERT INTO assay_data (compound, reported) VALUES
  ('CCN(CC)CCCN(C(=O)c1cccs1)c1nc(-c2ccc(OC)cc2)cs1', 'inactive'),
  ('Cn1c(CN2CCN(c3ccccc3NS(C)(=O)=O)CC2)nc2ccccc21', 'inactive'),
  ('C=CCn1c(=N)n(CC(O)COc2ccccc2OC)c2ccccc21 (stereo not drawn)', 'inactive'),
  ('COc1ccc(CNC(=O)C(C)NCc2ccc(S(N)(=O)=O)cc2)cc1 (stereo not drawn)', 'inactive'),
  ('Cc1cc(N2CCOCC2)nc(NCc2ccccc2)n1', 'inactive');

Q: // lookup potentiation, percent of control | system=Short transient receptor potential channel 6 (Mus musculus) | key= CC(=O)Nc1cccc(C(=O)NCC2(N3CCCCC3)CCCCC2)c1
Result: inactive

Q: What measured potentiation, percent of control is associated with Clc1ccc2nc(CN3CCCc4ccccc43)cn2c1 on Short transient receptor potential channel 6 (Mus musculus)?
Result: inactive

Q: I'm curious: which potentiation, percent of control was measured for COc1ccc(-c2cc(C(=O)N3CC(C)CC(C)C3)c3ccccc3n2)cc1 (stereo not drawn) tested on Short transient receptor potential channel 6 (Mus musculus)?
Result: inactive

Q: Could you share what potentiation, percent of control was measured for COc1ccc(CC2(CO)CCN(C/C=C/c3ccccc3OC)CC2)cc1 , tested on Short transient receptor potential channel 6 (Mus musculus)?
Result: inactive

Q: Can you look up potentiation, percent of control on Short transient receptor potential channel 6 (Mus musculus) for COc1ccc(C(CNC(=O)c2cccc(Br)c2)N2CCCC2)cc1 (stereo not drawn) ?
Result: inactive

Q: Short answer please: potentiation, percent of control, Short transient receptor potential channel 6 (Mus musculus), entry CN(C)CCCN(C(=O)c1ccc(S(=O)(=O)N2CCc3ccccc3C2)cc1)c1nc2ccc(F)cc2s1
Result: inactive

Q: potentiation, percent of control of CCCN(CCC)CCCNC(=O)c1ccc2c(Cl)c3c(nc2c1)CCC3 on Short transient receptor potential channel 6 (Mus musculus)?
Result: inactive

Q: API: value(readout= potentiation, percent of control, system= Short transient receptor potential channel 6 (Mus musculus), query= N#Cc1c(-c2cccs2)nc(SCc2ccc(Cl)cc2)[nH]c1=O )
Result: inactive

Q: Requested read-out potentiation, percent of control, target or system Short transient receptor potential channel 6 (Mus musculus), entry CCOc1nc(C)cc(C)c1S(=O)(=O)c1cccc(C)c1
Result: inactive

Q: // lookup potentiation, percent of control | system=Short transient receptor potential channel 6 (Mus musculus) | key= CCCN(c1nc(C)cc(OC)n1)S(=O)(=O)c1ccccc1
Result: inactive

Q: Form: Entry = NC(=O)C1CCCN(CCc2ccccc2)C1 (stereo not drawn) | System = Short transient receptor potential channel 6 (Mus musculus) | potentiation, percent of control = ____
Result: inactive

Q: API: value(readout= potentiation, percent of control, system= Short transient receptor potential channel 6 (Mus musculus), query= COc1ccc(C(CNC(=O)CSc2ccccc2C)N(C)C)cc1 (stereo not drawn) )
Result: inactive

Q: Reported potentiation, percent of control for Short transient receptor potential channel 6 (Mus musculus), given CC(=O)N1CCN(c2ccccc2NC(=O)c2ccc3ccccc3c2)CC1 ?
Result: inactive

Q: Checklist item: potentiation, percent of control tested on Short transient receptor potential channel 6 (Mus musculus), entry CC(C(=O)c1ccc(Br)cc1)[n+]1cccc(NC(=O)c2ccccc2)c1 (stereo not drawn) , value?
Result: inactive

// provenance: PubChem BioAssay
